# ASSAY_OVERVIEW: Oral bioavailability in mouse
# Format: ADME, organism-based
# CONDITION_PARAMETERS: in vivo
MEASURE_NAME: bioavailability (%)
Dear colleague, please return just the value in %, with no unit written.

State, in one line, measured bioavailability of `FC(F)(F)c1ccc(Oc2ccc(Nc3ncnc4ccccc34)cc2)cc1`
58

---

# ASSAY_OVERVIEW: Half life in mouse
# Assay type: ADME, organism-based
# CONDITION_PARAMETERS: in vivo
MEASURE_NAME: half-life (h)
Dear colleague, please return just the value in h, with no unit written.

State, in one line, measured half-life of `FC(F)(F)c1ccc(Oc2ccc(Nc3ncnc4ccccc34)cc2)cc1`
64
